Form field: TrkA [pKd] (one value per entry).
target_of_assay: TrkA (Homo sapiens, UniProt P04629)
Sequence (P04629 33-796): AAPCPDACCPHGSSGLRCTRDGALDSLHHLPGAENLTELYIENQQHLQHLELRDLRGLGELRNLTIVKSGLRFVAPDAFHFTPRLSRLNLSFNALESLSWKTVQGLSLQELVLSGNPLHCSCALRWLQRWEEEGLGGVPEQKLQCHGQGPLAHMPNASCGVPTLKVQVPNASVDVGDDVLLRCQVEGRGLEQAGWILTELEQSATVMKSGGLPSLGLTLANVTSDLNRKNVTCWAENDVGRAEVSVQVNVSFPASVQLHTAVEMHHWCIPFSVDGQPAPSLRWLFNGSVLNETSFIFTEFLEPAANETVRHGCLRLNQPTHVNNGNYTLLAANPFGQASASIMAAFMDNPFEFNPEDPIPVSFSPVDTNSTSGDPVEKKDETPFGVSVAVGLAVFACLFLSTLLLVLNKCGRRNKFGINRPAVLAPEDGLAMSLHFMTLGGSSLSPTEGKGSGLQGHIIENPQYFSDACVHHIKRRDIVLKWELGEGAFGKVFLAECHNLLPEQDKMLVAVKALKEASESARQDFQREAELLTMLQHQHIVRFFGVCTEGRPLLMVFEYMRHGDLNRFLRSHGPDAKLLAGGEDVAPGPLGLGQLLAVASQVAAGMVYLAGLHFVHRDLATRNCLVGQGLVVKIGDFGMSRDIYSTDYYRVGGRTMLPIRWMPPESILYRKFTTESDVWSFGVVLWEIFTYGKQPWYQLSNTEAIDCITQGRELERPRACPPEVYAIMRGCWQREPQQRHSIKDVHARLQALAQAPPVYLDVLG
assay: KdELECT Kd measurement (KINOMEscan), TrkA
Assay type: binding
Experimental: Kd measurements were done via the KdELECT product service from DiscoverX Corporation (Freemont, Calif., USA) which also employs the KINOMEscan technology. Here, inhibitor binding constants (Kd values) are calculated from duplicate 11-point dose-response curves.
endpoint: TrkA [pKd]

>>> df
                                   molecule                      target_of_assay    endpoint  measured_value
0  Cc1cc(Nc2cc(N3CCN(C)CC3)nc(SCc3ccc(F)cc3)n2)n[nH]1  TrkA (Homo sapiens, UniProt P04629)  TrkA [pKd]             9.0
1  Cc1ccc(CSc2nc(Nc3cc(C)[nH]n3)cc(N3CCN(C)CC3)n2)cc1  TrkA (Homo sapiens, UniProt P04629)  TrkA [pKd]             8.4
2  CN1CCN(c2cc(Nc3cc(C4CCCC4)[nH]n3)nc(Sc3ccccc3)n2)CC1  TrkA (Homo sapiens, UniProt P04629)  TrkA [pKd]             8.8
3  Cc1cc(Nc2cc(N3CCN(C)CC3)nc(Sc3ccccc3)n2)n[nH]1 [Reference 2, reference compound]  TrkA (Homo sapiens, UniProt P04629)  TrkA [pKd]             7.5
4  CN1CCN(c2cc(Nc3cc(-c4cccc(F)c4)[nH]n3)nc(Sc3ccccc3)n2)CC1  TrkA (Homo sapiens, UniProt P04629)  TrkA [pKd]             8.6

* * *

target_of_assay: AurA (Homo sapiens, UniProt O14965)
Sequence (O14965 1-403): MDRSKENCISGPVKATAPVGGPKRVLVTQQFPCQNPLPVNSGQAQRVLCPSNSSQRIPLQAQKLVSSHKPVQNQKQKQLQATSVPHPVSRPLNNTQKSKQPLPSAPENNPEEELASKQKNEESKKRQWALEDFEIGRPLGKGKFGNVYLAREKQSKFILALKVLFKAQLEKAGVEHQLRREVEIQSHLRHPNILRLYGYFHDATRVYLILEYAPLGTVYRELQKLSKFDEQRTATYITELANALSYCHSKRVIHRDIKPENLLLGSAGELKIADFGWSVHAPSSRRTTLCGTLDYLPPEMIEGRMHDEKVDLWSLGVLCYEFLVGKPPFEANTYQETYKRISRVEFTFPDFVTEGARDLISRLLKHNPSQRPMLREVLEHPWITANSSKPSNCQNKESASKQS
assay: KINOMEscan primary screen against AurA
Format: binding
reported_conditions: 100 nM compound; % of control
endpoint: % Ctrl. AurA @100 nM (% Ctrl.)

>>> df
                                   compound  measured_value
0  Cc1cccc(Sc2nc(Nc3cc(C)[nH]n3)cc(N3CCN(C)CC3)n2)c1             2.6
1  Cc1ccc(C)c(Sc2nc(Nc3cc(C)[nH]n3)cc(N3CCN(C)CC3)n2)c1             7.3
2  Cc1ccc(Sc2nc(Nc3cc(C)[nH]n3)cc(N3CCN(C)CC3)n2)c(C)c1              51
3  CN1CCN(c2cc(Nc3cc(C(C)(C)C)[nH]n3)nc(Sc3ccccc3)n2)CC1             100
4  Cc1cc(Nc2cc(N3CCN(C)CC3)nc(Sc3cccc(C(F)(F)F)c3)n2)n[nH]1              36
5  Cc1ccc(CSc2nc(Nc3cc(C)[nH]n3)cc(N3CCN(C)CC3)n2)cc1              30
6  Cc1cc(Nc2cc(N3CCN(C)CC3)nc(Sc3ccccc3)n2)n[nH]1 [Reference 2, reference compound]              15
7  Cc1cc(Nc2cc(N3CCN(C)CC3)nc(SCc3cccc4ccccc34)n2)n[nH]1              63
8  Cc1ccc(C)c(CSc2nc(Nc3cc(C)[nH]n3)cc(N3CCN(C)CC3)n2)c1              54

* * *

target_of_assay: AurA (Homo sapiens, UniProt O14965)
assay: KINOMEscan primary screen against AurA
Type: binding
reported_conditions: 100 nM compound; % of control
endpoint: % Ctrl. AurA @100 nM

In [3]: df
Out[3]:
                                   molecule  measured_value
0  CN1CCN(c2cc(Nc3cc(C4CCCC4)[nH]n3)nc(Sc3ccccc3)n2)CC1 [a4]      49 % Ctrl.
1  Cc1cc(Nc2cc(N3CCN(C)CC3)nc(SCc3ccc(C)c(C)c3)n2)n[nH]1 [b3]      46 % Ctrl.
2  CN1CCN(c2cc(Nc3cc4ccccn4n3)nc(Sc3ccccc3)n2)CC1 [a3]      87 % Ctrl.
3  CN1CCN(c2cc(Nc3cc(-c4cccc(F)c4)[nH]n3)nc(Sc3ccccc3)n2)CC1 [a1]      97 % Ctrl.
4  Cc1cc(Nc2cc(N3CCN(C)CC3)nc(SCc3ccc(F)cc3)n2)n[nH]1 [b7]      15 % Ctrl.

* * *

target_of_assay: TrkA (Homo sapiens, UniProt P04629)
assay: KINOMEscan primary screen against TrkA
Format: binding
reported_conditions: 100 nM compound; % of control
Procedure: Compounds were initially tested in a primary screen against TrkA (at 10 and 100 nM) and AurA (at 100 nM and 1 μM) using the KINOMEscan technology from DiscoverX Corporation, Fremont, Calif., USA (https://www.discoverx.com/services/drug-discovery-development-services/kinase-profiling/kinomescan). […]
Form field: % Ctrl. TrkA @100 nM (one value per entry).
endpoint: % Ctrl. TrkA @100 nM (% Ctrl.)

                                   compound                      target_of_assay  measured_value
0  Cc1cc(Nc2cc(N3CCN(C)CC3)nc(Sc3ccc(NC(=O)C4CC4)cc3)n2)n[nH]1 [Tozasertib, reference compound]  TrkA (Homo sapiens, UniProt P04629)             5.2
1  CN1CCN(c2cc(Nc3cc(C4CCCC4)[nH]n3)nc(Sc3ccccc3)n2)CC1  TrkA (Homo sapiens, UniProt P04629)            0.95
2  Cc1cc(Nc2cc(N3CCN(C)CC3)nc(Sc3ccccc3)n2)n[nH]1 [Reference 2, reference compound]  TrkA (Homo sapiens, UniProt P04629)              10
3  Cc1ccc(C)c(Sc2nc(Nc3cc(C)[nH]n3)cc(N3CCN(C)CC3)n2)c1  TrkA (Homo sapiens, UniProt P04629)              11

* * *

Form field: pIC50 (one value per entry).
target_of_assay: full-length human TrkA receptor (Homo sapiens)
Sequence (P01138 122-241 partner, one chain of several): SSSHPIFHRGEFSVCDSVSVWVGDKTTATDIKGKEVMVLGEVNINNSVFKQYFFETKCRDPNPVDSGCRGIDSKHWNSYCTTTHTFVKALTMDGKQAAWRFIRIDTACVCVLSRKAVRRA
assay: PathHunter cellular functional assay, antagonism of β-NGF
reported_conditions: antagonism at EC80 (0.03 μg/ml) of β-NGF; read-out: Cellular assay [RC50]
Source text: The two compounds a1 and b7 were additionally tested in a functional assay using the PathHunter® technology (DiscoverX Corporation, Freemont, Calif., USA; https://www.discoverx.com/technologies-platforms/enzyme-fragment-complementation-technoloqy/cell-based-efc-assays/protein-protein-interactions/kinases-cell-based-(rtk-ctk)). […] That recruitment results in an active B-galactosidase enzyme that is detected by addition of a chemiluminescent substrate. […]
pIC50: −log10 of the molar value.
endpoint: pIC50

>>> print(df.to_string())
                           substance_smiles                           target_of_assay  measured_value
0  Cc1cc(Nc2cc(N3CCN(C)CC3)nc(SCc3ccc(F)cc3)n2)n[nH]1  full-length human TrkA receptor (Homo sapiens)            7.64
1  CN1CCN(c2cc(Nc3cc(-c4cccc(F)c4)[nH]n3)nc(Sc3ccccc3)n2)CC1  full-length human TrkA receptor (Homo sapiens)            7.59

* * *

Form field: % Ctrl. TrkA @100 nM (one value per entry).
target_of_assay: TrkA (Homo sapiens, UniProt P04629)
assay: KINOMEscan primary screen against TrkA
Format: binding
reported_conditions: 100 nM compound; % of control
endpoint: % Ctrl. TrkA @100 nM (% Ctrl.)

>>> df
                                   compound  unit_label  measured_value
0  CN1CCN(c2cc(Nc3cc4ccccn4n3)nc(Sc3ccccc3)n2)CC1 [a3]     % Ctrl.              29
1  Cc1cc(Nc2cc(N3CCN(C)CC3)nc(SCc3ccc(C)c(C)c3)n2)n[nH]1 [b3]     % Ctrl.              11
2  CN1CCN(c2cc(Nc3cc(C(C)(C)C)[nH]n3)nc(Sc3ccccc3)n2)CC1 [a8]     % Ctrl.              18
3  Cc1ccc(C)c(CSc2nc(Nc3cc(C)[nH]n3)cc(N3CCN(C)CC3)n2)c1 [b2]     % Ctrl.              31
4  Cc1ccc(Sc2nc(Nc3cc(C)[nH]n3)cc(N3CCN(C)CC3)n2)c(C)c1 [b9]     % Ctrl.              24
5  CN1CCN(c2cc(Nc3cc(-c4cccc(F)c4)[nH]n3)nc(Sc3ccccc3)n2)CC1 [a1]     % Ctrl.             1.9
